Data origin: ChEMBL document CHEMBL5724914

# assay.summary: The drug is tested on WLS-370 corresponding to human gut metagenome with ENA study accession number: PRJEB37062 and ENA sample accession number: ERS12561793 for biotransformation under anaerobic condition. The drug concentrations were measured over 9 timepoints collected between 0 and 24 hours of incubation by liquid-chromatography-coupled mass spectrometry (LC–MS); further: call rule not given here
# condition.context: 2 µM
value.type: Bacterial Biotransformation

Below, each entry is followed by its recorded Bacterial Biotransformation result.
{"columns": ["compound", "Bacterial Biotransformation"],
 "data": [
  ["Clc1ccc(Cn2c(CN3CCCC3)nc3ccccc32)cc1", "Compound metabolized"],
  ["CC(C)(Oc1ccc(CCNC(=O)c2ccc(Cl)cc2)cc1)C(=O)O [BEZAFIBRATE]", "Compound metabolized"],
  ["CC(C)NCC(O)COc1ccc(CCOCC2CC2)cc1 (centres undefined)", "Compound NOT metabolized"],
  ["Cc1nc(-c2ccc(OCC(C)C)c(C#N)c2)sc1C(=O)O", "Compound metabolized"],
  ["COC(=O)C1=C(C)NC(C)=C(C(=O)OC(C)C)C1c1cccc2nonc12 (centres undefined)", "Compound metabolized"]
]}

Ask: Assign Bacterial Biotransformation to the following record: `CN1CCc2cccc3c2[C@H]1Cc1ccc(O)c(O)c1-3`
Result: Compound NOT metabolized

Ask: Assign Bacterial Biotransformation to the following record: `CC(C)c1nc(CN(C)C(=O)N[C@H](C(=O)N[C@@H](Cc2ccccc2)C[C@H](O)[C@H](Cc2ccccc2)NC(=O)OCc2cncs2)C(C)C)cs1`
Result: Compound metabolized

Ask: Assign Bacterial Biotransformation to the following record: CC(O)(CS(=O)(=O)c1ccc(F)cc1)C(=O)Nc1ccc(C#N)c(C(F)(F)F)c1 (centres undefined) [BICALUTAMIDE]
Result: Compound NOT metabolized

Ask: Assign Bacterial Biotransformation to the following record: Cc1ccc(S(=O)(=O)NC(=O)NN2CCCCCC2)cc1 [TOLAZAMIDE]
Result: Compound metabolized
